- assayed system: p38MAPKγ (MAPK12) (Homo sapiens)
- Construct: purchased Life Technologies
- Sequence (P53778 1-367): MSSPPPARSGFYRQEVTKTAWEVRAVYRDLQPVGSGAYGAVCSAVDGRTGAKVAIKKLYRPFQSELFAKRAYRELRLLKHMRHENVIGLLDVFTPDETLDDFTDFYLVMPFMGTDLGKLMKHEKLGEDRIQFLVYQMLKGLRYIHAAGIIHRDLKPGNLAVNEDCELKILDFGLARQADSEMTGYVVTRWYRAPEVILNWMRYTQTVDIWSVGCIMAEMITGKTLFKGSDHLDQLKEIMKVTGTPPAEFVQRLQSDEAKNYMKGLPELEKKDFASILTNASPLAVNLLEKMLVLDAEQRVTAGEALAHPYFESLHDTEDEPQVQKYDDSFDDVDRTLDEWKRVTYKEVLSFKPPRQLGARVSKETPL
- experiment description: p38 MAPKγ enzyme inhibition (Z-LYTE FRET)
- Type: biochemical
- condition label: Table 2A; read-out: IC50 Values for Enzyme Inhibition p38 MAPKγ
experimental readout: log10 IC50 (log10 of the value in nM)
Please note: log10 values; quantity IC50; unit nM.

## Task Could you share which log10 IC50 value was measured for Cc1ccc(-n2nc(C(C)(C)C)cc2NC(=O)Nc2ccc(OCc3ccnc(Nc4cncc(C#N)n4)c3)c3ccccc23)cc1 ?
## Result 2.83

## Task Follow-up item: Cc1ccc(-n2nc(C(C)(C)C)cc2NC(=O)Nc2ccc(OCc3ccnc(Nc4cncc(CC(=O)N(C)C)n4)c3)c3ccccc23)cc1
## Result 1.63

## Task Follow-up item: Cc1ccc(-n2nc(C(C)(C)C)cc2NC(=O)Nc2ccc(OCc3ccnc(Nc4cncc(N(C)C)n4)c3)c3ccccc23)cc1
## Result 2.37

## Task Follow-up item: CC(C)(C)c1cc(NC(=O)Nc2ccc(OCc3ccnc(Nc4cnccn4)c3)c3ccccc23)n(-c2cccc(F)c2)n1
## Result 2.11

## Task Follow-up item: Cc1ccc(-n2nc(C(C)(C)C)cc2NC(=O)Nc2ccc(OCc3ccnc(Nc4cnc(CC(=O)N(C)C)cn4)c3)c3ccccc23)cc1
## Result 1.90

---

- assayed system: p38 MAPKα isoform (MAPK14) (Homo sapiens, UniProt Q16539)
- Construct: purchased Life Technologies
- Sequence (Q16539 whole entry, canonical isoform): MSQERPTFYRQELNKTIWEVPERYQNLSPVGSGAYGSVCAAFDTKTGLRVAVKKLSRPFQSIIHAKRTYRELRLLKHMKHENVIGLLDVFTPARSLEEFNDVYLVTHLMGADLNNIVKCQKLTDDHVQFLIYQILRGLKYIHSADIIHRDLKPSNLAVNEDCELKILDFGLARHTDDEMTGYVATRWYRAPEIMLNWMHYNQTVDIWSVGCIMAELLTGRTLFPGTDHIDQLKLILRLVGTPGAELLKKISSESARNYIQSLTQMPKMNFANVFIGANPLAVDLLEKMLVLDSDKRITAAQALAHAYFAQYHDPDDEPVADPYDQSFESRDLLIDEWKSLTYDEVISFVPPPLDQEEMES
- experiment description: p38 MAPKα enzyme inhibition (Z-LYTE FRET)
- Type: biochemical
- condition label: Table 2B, unit inferred; read-out: p38 MAPKα (Enzyme Profile)
experimental readout: pIC50
pIC50 here: minus log base 10 of the concentration, concentration in moles per litre.

## Task Could you share which pIC50 value was measured for Cc1ccc(-n2nc(C(C)(C)C)cc2NC(=O)Nc2ccc(OCc3ccnc(Nc4cncc(C(C)C)n4)c3)c3ccccc23)cc1 ?
## Result 6.88

## Task Follow-up item: Cc1ccc(-n2nc(C(C)(C)C)cc2NC(=O)Nc2ccc(OCc3ccnc(Nc4cncc(N5CCCC5)n4)c3)c3ccccc23)cc1
## Result 7.82

## Task Follow-up item: CCc1cncc(Nc2cc(COc3ccc(NC(=O)Nc4cc(C(C)(C)C)nn4-c4cccc(F)c4)c4ccccc34)ccn2)n1
## Result 7.62

## Task Follow-up item: CCc1cncc(Nc2cc(COc3ccc(NC(=O)Nc4cc(C(C)(C)C)nn4-c4cccc(C)c4)c4ccccc34)ccn2)n1
## Result 7.74

## Task Follow-up item: CCc1cccc(-n2nc(C(C)(C)C)cc2NC(=O)Nc2ccc(OCc3ccnc(Nc4cnc(C(=O)N5CCCC5)cn4)c3)c3ccccc23)c1
## Result 7.37

Taken from patent US11142515B2.
